System: protein kinase
EXPERIMENTAL PROTOCOL: HTS ATP-utilizing enzyme assay, off-chip mobility-shift format (Caliper HTS 250)
Assay type: biochemical, human
CONDITION INFO: test compound 10 μM; active = activity greater than three-sigma from the mean of the predominately inactive population for that enzyme
REPORTED PROPERTY: protein kinase against which the compound exhibits inhibitory activity (Table 3)

* COc1ccccc1-n1c(SC2Cc3ccccc3C2=O)nnc1-c1cccc(Cl)c1 (centres unmarked) | ROCK2
* COCCn1c(SCCN2CCOCC2)nnc1-c1cc2ccccc2cc1O | CHEK2
* CCc1ccc(OCc2nnc(SCCC(=O)O)n2CC)cc1 | MSK1
* COc1ccccc1-n1c(SCCCC(=O)O)nnc1-c1ccccc1 | c-TAK1
* c1ccc(CCn2c(SCc3ccccc3)nnc2-c2cccnc2)cc1 | MSK1
* FC(F)(F)c1cccc(-c2nnc(SCC3CCCO3)[nH]2)c1 (centres unmarked) | AURORA-A
* CCC(c1ccccc1)c1nnc(SCc2ccc(C(=O)O)cc2)[nH]1 (centres unmarked) | AURORA-A
* CCn1c(COc2ccc(Br)cc2)nnc1SCCC(=O)O | AURORA-A
* Cc1ccc(C(=O)NNC(=O)CSc2nnc(COc3ccc(C#N)cc3)n2-c2ccccc2)cc1 | LCK
* CCc1nnc(SCC=C(C)C)n1CCc1ccccc1 | GSK3-α
* COc1ccccc1-n1c(SCCCC(=O)OCc2ccccc2)nnc1-c1ccccc1 | AURORA-A
* c1ccc(CCSc2nnc(-c3ccc(-c4ccccc4)cc3)[nH]2)cc1 | AURORA-A
* CC(C)=CCSc1nnc(Cc2ccccc2)n1Cc1ccc(Cl)c(Cl)c1 | c-TAK1
* CCOc1ccc2nc(-c3ccc(OC)cc3)cc(-c3nnc(SCc4ccc(F)cc4C(F)(F)F)n3C)c2c1 | AURORA-A
* CCOc1ccc2nc(-c3ccc(OC)cc3)cc(-c3nnc(SCc4ccc(F)cc4F)n3C)c2c1 | CHEK2
* CCn1c(SCC(=O)NNC(=O)Cc2ccccc2)nnc1-c1ccc(Cl)cc1 | FYN
* CC(C)(C)c1ccc(CSc2nnc(COc3ccc(Cl)cc3)n2-c2ccccc2)cc1 | SYK
* COCCCn1c(SCC(=O)NN(O)C(=O)c2ccccc2)nnc1-c1ccncc1 | AURORA-A
* COc1ccc(-n2c(CNc3cc(C(F)(F)F)ccc3Cl)nnc2SCc2ccccc2Cl)cc1 | CDK1
* Cc1ccc(-c2nnc(SCCC(=O)O)n2-c2ccc(C)cc2)cc1 | DAPK1
* COc1ccc(-n2c(Cc3ccccc3)nnc2SC)cc1 | AKT1
* CC(C)Cc1nnc(SCc2ccccc2)n1Cc1ccc(Cl)c(Cl)c1 | AURORA-A
* COc1ccc(Cc2nnc(SCc3cccc4ccccc34)[nH]2)cc1 | AURORA-A
* CC(=O)c1ccc(-n2c(SCCCCc3ccccc3)nnc2-c2cccc(Cl)c2)cc1 | INSR
* COc1ccccc1-n1c(SCC(=O)c2ccc3c(c2)OCCO3)nnc1-c1cccc(Cl)c1 | ROCK2
* Cc1cc(OCc2nnc(SCCN3CCOCC3)n2Cc2ccccc2)ccc1Cl | AURORA-A
* Cc1cc(OCc2nnc(SCCC(=O)O)n2C)ccc1Cl | AURORA-A
* OCC(O)CSc1nnc(CCc2ccccc2)[nH]1 (centres unmarked) | GSK3-α
* COc1ccc(-c2nnc(SCc3cccc(I)c3)[nH]2)cc1 | AURORA-A
* COc1ccccc1-n1c(SCc2csc(C)n2)nnc1-c1cccc(Cl)c1 | ROCK2
* Cc1ccc(NCc2nnc(SCc3nnc(-c4ccccc4)o3)n2CC2CCCO2)c(C)c1 (centres unmarked) | SYK
* Clc1ccc(OCc2nnc(SCc3cccnc3)[nH]2)cc1 | FLT-3
* CCOC(=O)c1ccc(CSc2nnc(-c3ccc([N+](=O)[O-])cc3)[nH]2)o1 | AURORA-A
* Clc1ccc(Cn2c(Cc3ccccc3)nnc2SCc2ccccc2)cc1Cl | AURORA-A
* CCC(O)CSc1nnc(-c2cccc(Cl)c2)n1-c1ccccc1OC (centres unmarked) | ROCK2
* Cn1c(CCc2nc3ccccc3[nH]2)nnc1SCCN1CCCCC1 | AURORA-A
* Cc1ccc(-n2c(SCC(=O)NNC(=O)c3ccccc3O)nnc2-c2ccccc2O)cc1 | AURORA-A
* COc1ccc(C(=O)NNC(=O)CSc2nnc(C)n2CC2CCCO2)cc1 (centres unmarked) | SYK
* CCn1c(COc2ccc(C)cc2)nnc1SCc1ccc(C)cc1 | AURORA-A
* Cc1cccc(OCc2nnc(SCC(=O)N3c4ccccc4CCc4ccccc43)n2C)c1C | MSK2
